Data credit: ChEMBL document CHEMBL5137026

Tested on: MDA-MB-231
Test: Antiproliferative activity against human MDA-MB-231 cells measured after 6 days by MTT assay
Format: functional
Details: MDA-MB-231, 144 h, time 6 day
Mark Satisfied only for GI50 values smaller than 700 nM; exact matches and larger values are Not satisfied.

Examples from the recorded data:
Lab log: compare recorded GI50 with 700 nM; is it strictly lower for [2H]c1c([2H])c(NC(=O)/C=C(C)/C=C/C=C(C)/C=C/C2=C(C)C([2H])(n3ccnc3)CCC2(C)C)c([2H])c([2H])c1F (racemic) ?
Satisfied

Lab log: compare recorded GI50 with 700 nM; is it strictly lower for [2H]C1(n2ccnc2)CCC(C)(C)C(/C=C/C(C)=C/C=C/C(C)=C/C(=O)Nc2ccc(F)cc2)=C1C (racemic) ?
Not satisfied

More entries:
Lab log: compare recorded GI50 with 700 nM; is it strictly lower for [2H]c1nc([2H])n(C2CCC(C)(C)C(/C=C/C(C)=C/C=C/C(C)=C/C(=O)Nc3c([2H])c([2H])c(F)c([2H])c3[2H])=C2C)c1[2H] (racemic) ?
Satisfied

Lab log: compare recorded GI50 with 700 nM; is it strictly lower for CC1=C(/C=C/C(C)=C/C=C/C(C)=C/C(=O)Nc2ccc(F)cc2)C(C)(C)CCC1n1ccnc1 (racemic; form 1) ?
Not satisfied

Lab log: compare recorded GI50 with 700 nM; is it strictly lower for [2H]c1c([2H])c(NC(=O)/C=C(C)/C=C/C=C(C)/C=C/C2=C(C)C(n3ccnc3)CCC2(C)C)c([2H])c([2H])c1F (racemic) ?
Not satisfied

Lab log: compare recorded GI50 with 700 nM; is it strictly lower for [2H]c1nc([2H])n(C2([2H])CCC(C)(C)C(/C=C/C(C)=C/C=C/C(C)=C/C(=O)Nc3ccc(F)cc3)=C2C)c1[2H] (racemic) ?
Not satisfied

Lab log: compare recorded GI50 with 700 nM; is it strictly lower for CC(=O)O[C@H]1C(=O)[C@@]2(C)[C@H]([C@H](OC(=O)c3ccccc3)[C@]3(O)C[C@H](OC(=O)[C@H](O)[C@@H](NC(=O)c4ccccc4)c4ccccc4)C(C)=C1C3(C)C)[C@]1(OC(C)=O)CO[C@@H]1C[C@@H]2O [PACLITAXEL] ?
Satisfied
